- SYSTEM_TESTED: T1, His-tagged human HtrA1 protease domain (human, UniProt Q92743 161-367)
- T1 construct: His-tagged protease domain; also called huHtrA1-PD-His; huHtrA1-PD
- METHOD_SUMMARY: SPR (BIACORE T200), huHtrA1-PD-His captured by anti-His, Fab injected
ASSAY_ENDPOINT: kon (M⁻¹ s⁻¹)
Return type: number; implicit unit M⁻¹ s⁻¹.

Worked cases, kon given:
INSERT INTO results (binder, unit_annotation, reported_value) VALUES
  ('combination mutant LC4.HC5 Fab (Fab, V domains shown, Fab) VH: EVQLVQSGAEVKKPGASVKVSCKASGYTFTDSELHWVRQAPGQGLEWIGGVDPETDGAAYNQKFKGRATITRDTSTSTAYLELSSLRSEDTAVYYCTRGYDYDYALDYWGQGTLVTVSS VL: DIQMTQSPSSLSASVGDRVTITCRASSSVNFIHWYQQKPGKAPKPLISATSHLASGVPSRFSGSGSGTDFTLTISSLQPEDFATYYCQQWSSNPWTFGQGTKVEIK', 'M⁻¹ s⁻¹', 212000),
  ('combination mutant LC5.HC2 Fab (Fab, V domains shown, Fab) VH: EVQLVQSGAEVKKPGASVKVSCKASGYTFRDSEMHWVRQAPGQGLEWIGGVDPETDGAAYNQKFKGRATITRDTSTSTAYLELSSLRSEDTAVYYCTRGYDYDYALDYWGQGTLVTVSS VL: DIQMTQSPSSLSASVGDRVTITCRASSSVNFIHWYQQKPGKAPKPLISATSELASGVPSRFSGSGSGTDFTLTISSLQPEDFATYYCQQWSSNPWTFGQGTKVEIK', 'M⁻¹ s⁻¹', 294000),
  ('combination mutant LC5.HC1 Fab (Fab, V domains shown, Fab) VH: EVQLVQSGAEVKKPGASVKVSCKASGYTFKDSEMHWVRQAPGQGLEWIGGVDPETDGAAYNQKFKGRATITRDTSTSTAYLELSSLRSEDTAVYYCTRGYDYDYALDYWGQGTLVTVSS VL: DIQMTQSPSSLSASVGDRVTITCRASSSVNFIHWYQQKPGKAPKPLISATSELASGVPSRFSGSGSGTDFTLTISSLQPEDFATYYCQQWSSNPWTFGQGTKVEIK', 'M⁻¹ s⁻¹', 208000),
  ('combination mutant LC5.HC5 Fab (Fab, V domains shown, Fab) VH: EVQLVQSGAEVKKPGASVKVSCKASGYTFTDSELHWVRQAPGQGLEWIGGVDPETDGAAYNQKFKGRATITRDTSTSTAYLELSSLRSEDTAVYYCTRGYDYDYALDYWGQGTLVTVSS VL: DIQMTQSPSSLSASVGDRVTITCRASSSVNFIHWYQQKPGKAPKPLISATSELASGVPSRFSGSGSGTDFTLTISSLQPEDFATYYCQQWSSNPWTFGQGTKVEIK', 'M⁻¹ s⁻¹', 337000);

# return recorded kon for entry combination mutant LC3.HC2 Fab (Fab, V domains shown, Fab) VH: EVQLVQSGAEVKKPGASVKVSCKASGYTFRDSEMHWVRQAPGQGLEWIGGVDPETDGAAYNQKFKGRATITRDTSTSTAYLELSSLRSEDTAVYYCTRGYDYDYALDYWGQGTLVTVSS VL: DIQMTQSPSSLSASVGDRVTITCRASSSVEFIHWYQQKPGKAPKPLISATSNLASGVPSRFSGSGSGTDFTLTISSLQPEDFATYYCQQWSSNPWTFGQGTKVEIK
362000
